# measurement_target: Hsp90 in C. albicans (SC5314) lysate (Candida albicans)
# Construct: endogenous in cells; host or cells: C. albicans SC5314 whole-cell lysate
# assay_info: biochemical
# Format: binding
# assay_context: SC5314 lysate, 37.037 nM
This section presents compounds with their documented FP signal (raw) values.

compound: COc1ccccc1CON=C1C=CC=CC2OC2CC(C)OC(=O)c2c(O)cc(O)c(Cl)c2C1 (mixture of isomers) [compound 226]
measurement_target: Hsp90 in C. albicans (SC5314) lysate (Candida albicans)
FP signal (raw): 190
//
compound: CC1CC2OC2C=CC=CC(=NOCc2cccc(F)c2)Cc2c(Cl)c(O)cc(O)c2C(=O)O1 (mixture of isomers) [compound 227]
measurement_target: Hsp90 in C. albicans (SC5314) lysate (Candida albicans)
FP signal (raw): 178
//
compound: C[C@@H]1C[C@@H]2O[C@@H]2/C=C\C=C\C(=NOCc2ccccc2Cl)Cc2c(Cl)c(O)cc(O)c2C(=O)O1 [compound 4]
measurement_target: Hsp90 in C. albicans (SC5314) lysate (Candida albicans)
FP signal (raw): 199
//
compound: COc1ccc(CON=C2C=CC=CC3OC3CC(C)OC(=O)c3c(O)cc(O)cc3C2)cc1 (stereo not shown) [CMLD013075]
measurement_target: Hsp90 in C. albicans (SC5314) lysate (Candida albicans)
FP signal (raw): 196

---

# measurement_target: Hsp90 in C. albicans (SC5314) lysate (Candida albicans, UniProt P46598)
# Construct: endogenous in cells; host or cells: C. albicans SC5314 whole-cell lysate
# Sequence (P46598 whole entry): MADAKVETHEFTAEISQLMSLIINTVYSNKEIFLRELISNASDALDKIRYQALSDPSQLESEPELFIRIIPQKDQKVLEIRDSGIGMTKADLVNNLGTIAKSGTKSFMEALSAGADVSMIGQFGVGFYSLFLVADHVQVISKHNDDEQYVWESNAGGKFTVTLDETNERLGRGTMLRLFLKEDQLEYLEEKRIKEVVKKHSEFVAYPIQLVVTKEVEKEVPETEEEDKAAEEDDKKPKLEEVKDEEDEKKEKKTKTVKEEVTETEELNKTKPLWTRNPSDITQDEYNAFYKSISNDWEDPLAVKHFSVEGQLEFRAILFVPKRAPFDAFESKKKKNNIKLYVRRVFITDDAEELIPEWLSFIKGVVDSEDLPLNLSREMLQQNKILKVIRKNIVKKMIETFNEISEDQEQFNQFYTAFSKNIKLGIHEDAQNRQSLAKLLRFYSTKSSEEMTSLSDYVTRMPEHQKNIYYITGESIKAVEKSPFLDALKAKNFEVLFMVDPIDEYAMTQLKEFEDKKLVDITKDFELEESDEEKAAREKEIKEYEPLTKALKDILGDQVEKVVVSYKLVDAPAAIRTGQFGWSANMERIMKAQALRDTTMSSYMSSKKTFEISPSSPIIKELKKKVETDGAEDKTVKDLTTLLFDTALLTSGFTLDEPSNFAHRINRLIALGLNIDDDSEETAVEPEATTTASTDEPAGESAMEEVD
# assay_info: biochemical
# Type: binding
# assay_context: SC5314 lysate; fit against log conc uM; read-out: EC50

compound: COc1ccc(CON=C2C=CC=CC3OC3CC(C)OC(=O)c3c(O)cc(O)cc3C2)cc1 (mixture of isomers) [CMLD075]
EC50: 0.102 µM

---

# System: Hsp90 in HEPG2 lysate
# assay_context: HepG2 lysate, 37.037 nM
Classification field: enter TRUE for FP signal (raw) values not below 200, FALSE for values below it.

compound: CCON=C1/C=C/C=C\[C@H]2O[C@H]2C[C@@H](C)OC(=O)c2c(O)cc(O)c(Cl)c2C1
class_name: FALSE

compound: COc1ccc(CON=C2C=CC=CC3OC3CC(C)OC(=O)c3c(O)cc(O)c(Cl)c3C2)cc1 (mixture of isomers)
class_name: TRUE

compound: Cc1ccc(CON=C2C=CC=CC3OC3CC(C)OC(=O)c3c(O)cc(O)c(Cl)c3C2)cc1 (mixture of isomers)
class_name: TRUE

compound: CC1(C)CC(=O)c2c(C(F)(F)F)nn(-c3ccc(C(N)=O)c(N[C@H]4CC[C@H](O)CC4)c3)c2C1 [SNX-2112, reference compound]
class_name: FALSE

---

# Test system: Hsp90 in HEPG2 lysate
# assay_context: HEPG2 lysate, log concentration -0.340084 (0.457 nM)
This section presents compounds with their documented FP signal, Fxn Control values.
experimental_readout: FP signal, Fxn Control

compound: CCNC(=O)c1noc(-c2cc(C(C)C)c(O)cc2O)c1-c1ccc(CN2CCOCC2)cc1 [AUY922, reference compound]
measurement_target: Hsp90 in HEPG2 lysate
experimental_readout: FP signal, Fxn Control
reported_result: 0.9763
//
compound: CCON=C1/C=C/C=C\[C@H]2O[C@H]2C[C@@H](C)OC(=O)c2c(O)cc(O)c(Cl)c2C1
measurement_target: Hsp90 in HEPG2 lysate
experimental_readout: FP signal, Fxn Control
reported_result: 0.9575
//
compound: COc1ccc(CON=C2C=CC=CC3OC3CC(C)OC(=O)c3c(O)cc(O)c(Cl)c3C2)cc1 (mixture of isomers)
measurement_target: Hsp90 in HEPG2 lysate
experimental_readout: FP signal, Fxn Control
reported_result: 0.9904
//
compound: CC1CC2OC2C=CC=CC(=NOCc2cccc(F)c2)Cc2c(Cl)c(O)cc(O)c2C(=O)O1 (mixture of isomers)
measurement_target: Hsp90 in HEPG2 lysate
experimental_readout: FP signal, Fxn Control
reported_result: 0.976
//
compound: CC1CC2OC2C=CC=CC(=NOCCN2CCCC2=O)Cc2c(Cl)c(O)cc(O)c2C(=O)O1 (stereo not shown) [KF58333, reference compound]
measurement_target: Hsp90 in HEPG2 lysate
experimental_readout: FP signal, Fxn Control
reported_result: 0.9703
//
compound: CC1CC2OC2C=CC=CC(=NOCc2ccccc2)Cc2c(Cl)c(O)cc(O)c2C(=O)O1 (mixture of isomers)
measurement_target: Hsp90 in HEPG2 lysate
experimental_readout: FP signal, Fxn Control
reported_result: 1.005
//
compound: C[C@@H]1C[C@@H]2O[C@@H]2/C=C\C=C\C(=NOCc2ccccc2Cl)Cc2c(Cl)c(O)cc(O)c2C(=O)O1
measurement_target: Hsp90 in HEPG2 lysate
experimental_readout: FP signal, Fxn Control
reported_result: 1.0099

---

# measurement_target: Hsp90 in C. albicans (SC5314) lysate (Candida albicans, UniProt P46598)
# Construct: endogenous in cells; host or cells: C. albicans SC5314 whole-cell lysate
# assay_info: biochemical
# Type: binding
# assay_context: SC5314 lysate, 3000 nM
experimental_readout: FP signal (raw)

molecule: CCON=C1/C=C/C=C\[C@H]2O[C@H]2C[C@@H](C)OC(=O)c2c(O)cc(O)c(Cl)c2C1
reported_result: 35

molecule: CC1CC2OC2C=CC=CC(=NOCc2cccc(F)c2)Cc2c(Cl)c(O)cc(O)c2C(=O)O1 (mixture of isomers)
reported_result: 32

molecule: CC1(C)CC(=O)c2c(C(F)(F)F)nn(-c3ccc(C(N)=O)c(N[C@H]4CC[C@H](OC(=O)CN)CC4)c3)c2C1
reported_result: 34

molecule: Cc1ccc(CON=C2C=CC=CC3OC3CC(C)OC(=O)c3c(O)cc(O)c(Cl)c3C2)cc1 (mixture of isomers)
reported_result: 45

molecule: COc1ccc(CON=C2C=CC=CC3OC3CC(C)OC(=O)c3c(O)cc(O)c(Cl)c3C2)cc1 (mixture of isomers)
reported_result: 52

molecule: CCNC(=O)c1noc(-c2cc(C(C)C)c(O)cc2O)c1-c1ccc(CN2CCOCC2)cc1 [AUY922, reference compound]
reported_result: 31

molecule: C[C@@H]1C[C@@H]2O[C@@H]2/C=C\C=C\C(=NOCc2ccccc2Cl)Cc2c(Cl)c(O)cc(O)c2C(=O)O1
reported_result: 39

---

# measurement_target: Hsp90 in C. albicans (SC5314) lysate (Candida albicans, UniProt P46598)
# Construct: endogenous in cells; host or cells: C. albicans SC5314 whole-cell lysate
# assay_info: biochemical
# Format: binding
# assay_context: SC5314 lysate, 4.115 nM
This section presents compounds with their documented FP signal (raw) values.

compound: C[C@@H]1C[C@@H]2O[C@@H]2/C=C\C=C\C(=NOCc2ccccc2Cl)Cc2c(Cl)c(O)cc(O)c2C(=O)O1
measurement_target: Hsp90 in C. albicans (SC5314) lysate (Candida albicans, UniProt P46598)
FP signal (raw): 207
--
compound: CC1CC2OC2C=CC=CC(=NOCCN2CCCC2=O)Cc2c(Cl)c(O)cc(O)c2C(=O)O1 (stereo not shown) [KF58333, reference compound]
measurement_target: Hsp90 in C. albicans (SC5314) lysate (Candida albicans, UniProt P46598)
FP signal (raw): 162
--
compound: CCNC(=O)c1noc(-c2cc(C(C)C)c(O)cc2O)c1-c1ccc(CN2CCOCC2)cc1 [AUY922, reference compound]
measurement_target: Hsp90 in C. albicans (SC5314) lysate (Candida albicans, UniProt P46598)
FP signal (raw): 138
--
compound: COc1ccccc1CON=C1C=CC=CC2OC2CC(C)OC(=O)c2c(O)cc(O)c(Cl)c2C1 (mixture of isomers)
measurement_target: Hsp90 in C. albicans (SC5314) lysate (Candida albicans, UniProt P46598)
FP signal (raw): 190

---

# Tested on: Hsp90 in HEPG2 lysate
# assay_context: EC50 relative to GdA, HEPG2 lysate

molecule: COc1ccccc1CON=C1C=CC=CC2OC2CC(C)OC(=O)c2c(O)cc(O)c(Cl)c2C1 (mixture of isomers)
Ratio rel. GdA (HepG2): 32.872
--
molecule: C[C@@H]1C[C@@H]2O[C@@H]2/C=C\C=C\C(=NOCc2ccccc2Cl)Cc2c(Cl)c(O)cc(O)c2C(=O)O1
Ratio rel. GdA (HepG2): 90.1713
--
molecule: Cc1ccc(CON=C2C=CC=CC3OC3CC(C)OC(=O)c3c(O)cc(O)c(Cl)c3C2)cc1 (mixture of isomers)
Ratio rel. GdA (HepG2): 112.714

---

# measurement_target: Hsp90 in C. albicans (SC5314) lysate (Candida albicans)
# Construct: endogenous in cells; host or cells: C. albicans SC5314 whole-cell lysate
# assay_info: biochemical
# Assay type: binding
# assay_context: SC5314 lysate, 1.372 nM compound

compound: C[C@@H]1C[C@@H]2O[C@@H]2/C=C\C=C\C(=NOCc2ccccc2Cl)Cc2c(Cl)c(O)cc(O)c2C(=O)O1 [compound 4]
FP signal relative to 0 nM: 1

compound: CCON=C1/C=C/C=C\[C@H]2O[C@H]2C[C@@H](C)OC(=O)c2c(O)cc(O)c(Cl)c2C1 [compound 333]
FP signal relative to 0 nM: 0.7673

compound: CC1CC2OC2C=CC=CC(=NOCCN2CCCC2=O)Cc2c(Cl)c(O)cc(O)c2C(=O)O1 (stereo not shown) [KF58333, reference compound]
FP signal relative to 0 nM: 0.9324

compound: COc1ccc(CON=C2C=CC=CC3OC3CC(C)OC(=O)c3c(O)cc(O)cc3C2)cc1 (stereo not shown) [CMLD013075]
FP signal relative to 0 nM: 0.9709
